Measured pEC50 values are reported for all entries that follow.
Test system: MT4
Test: Antiviral activity against HIV1 assessed as inhibition of HIV1-induced cytopathicity in MT4 cells
Type: functional, cell-based
Conditions: Homo sapiens
Scale note: pEC50 = -log10(concentration in M).

Some solved entries appear below for comparison.
Cc1cn(C2OC(CO[Si](C)(C)C(C)(C)C)C3(OS(=O)(=O)C=C3N)C2O[Si](C)(C)C(C)(C)C)c(=O)n(CCCNC(=O)[C@@H]2CCCN2C(=O)[C@@H](N)CC(N)=O)c1=O (some centres undefined) = 6.23
Cc1cn(C2OC(CO[Si](C)(C)C(C)(C)C)C3(OS(=O)(=O)C=C3N)C2O[Si](C)(C)C(C)(C)C)c(=O)n(CCCNC(=O)[C@@H]2C[C@@H](OCc3ccccc3)CN2C(=O)[C@@H](N)C(C)C)c1=O (some centres undefined) = 6.57
Cc1cn(C2OC(CO[Si](C)(C)C(C)(C)C)C3(OS(=O)(=O)C=C3N)C2O[Si](C)(C)C(C)(C)C)c(=O)n(CCCNC(=O)[C@@H]2CCCN2C(=O)[C@@H](N)C(C)C)c1=O (some centres undefined) = 6.52

# next molecule below
Asked: Consider the molecule Cc1cn(C2OC(CO[Si](C)(C)C(C)(C)C)C3(OS(=O)(=O)C=C3N)C2O[Si](C)(C)C(C)(C)C)c(=O)n(CCCNC(=O)[C@H](C)NC(=O)[C@@H](N)C(C)C)c1=O (some centres undefined) and give its recorded pEC50.
Given back: 6.64

* * *

Biological target: CD26 (Dipeptidyl peptidase 4) (Homo sapiens, UniProt P27487)
Experiment: Inhibition of CD26-catalyzed GlyPro-pNA hydrolysis at 20 uM
Details: CD26 (dipeptidyl peptidase 4) enzyme, probe GlyPro-pNA
Measured property: inhibition at 20 µM (%)
Give the value in % but do not write % after it.

Asked: Please indicate inhibition at 20 µM recorded for Cc1cn(C2OC(CO[Si](C)(C)C(C)(C)C)C3(OS(=O)(=O)C=C3N)C2O[Si](C)(C)C(C)(C)C)c(=O)n(CCCNC(=O)[C@@H]2CCCN2C(=O)[C@@H](N)C(C)C)c1=O (stereo partly specified)
Given back: 50

* * *

Test system: MT4
Experiment: Antiproliferative activity against human MT4 cell line
Assay type: functional
Measured property: CC50 (µM)
// units = µM; emit number, no label

Cc1cn(C2OC(CO[Si](C)(C)C(C)(C)C)C3(OS(=O)(=O)C=C3N)C2O[Si](C)(C)C(C)(C)C)c(=O)n(CCCNC(=O)[C@@H]2CCCN2C(=O)[C@H](C)N)c1=O (stereo partly drawn) = 20
Cc1cn(C2OC(CO[Si](C)(C)C(C)(C)C)C3(OS(=O)(=O)C=C3N)C2O[Si](C)(C)C(C)(C)C)c(=O)n(CCCNC(=O)[C@@H]2[C@@H](O)[C@@H](O)CN2C(=O)[C@@H](N)C(C)C)c1=O (stereo partly drawn) = 46

Continue with the next molecule.
Asked: Report CC50 for Cc1cn(C2OC(CO[Si](C)(C)C(C)(C)C)C3(OS(=O)(=O)C=C3N)C2O[Si](C)(C)C(C)(C)C)c(=O)n(CCCNC(=O)[C@@H]2CCCN2C(=O)[C@@H](N)Cc2ccc(O)cc2)c1=O (stereo partly drawn)
Given back: 11

* * *

Biological target: Dipeptidyl peptidase 4 (Homo sapiens)
Sequence (P27487 whole entry): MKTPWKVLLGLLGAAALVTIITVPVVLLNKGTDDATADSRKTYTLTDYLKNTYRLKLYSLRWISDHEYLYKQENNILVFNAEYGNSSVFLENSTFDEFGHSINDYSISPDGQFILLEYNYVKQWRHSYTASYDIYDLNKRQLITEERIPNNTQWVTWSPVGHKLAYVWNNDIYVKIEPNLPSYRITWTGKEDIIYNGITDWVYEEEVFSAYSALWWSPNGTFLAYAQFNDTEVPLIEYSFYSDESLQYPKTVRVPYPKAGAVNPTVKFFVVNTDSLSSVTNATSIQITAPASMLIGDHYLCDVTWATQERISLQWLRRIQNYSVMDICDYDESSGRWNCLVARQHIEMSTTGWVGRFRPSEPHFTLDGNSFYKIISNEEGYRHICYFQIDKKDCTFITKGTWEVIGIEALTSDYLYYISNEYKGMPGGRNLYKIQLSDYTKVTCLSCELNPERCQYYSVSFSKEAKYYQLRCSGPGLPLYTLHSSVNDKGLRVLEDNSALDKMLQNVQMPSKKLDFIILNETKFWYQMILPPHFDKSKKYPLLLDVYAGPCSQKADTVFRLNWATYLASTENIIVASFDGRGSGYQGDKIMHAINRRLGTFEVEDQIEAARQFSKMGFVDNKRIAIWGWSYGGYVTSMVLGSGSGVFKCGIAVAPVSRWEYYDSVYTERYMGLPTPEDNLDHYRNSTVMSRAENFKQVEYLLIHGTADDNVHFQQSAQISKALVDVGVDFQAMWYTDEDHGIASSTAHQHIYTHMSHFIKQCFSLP
Experiment: Conversion of prodrug to parent drug NAP-TSAO-T catalyzed by CD26 after 4 hrs
Type: ADME
Design: concentration or dose not given beside the values
Measured property: Activity (%)
Give the number; % is assumed, so skip it.

Worked set:
Cc1cn(C2OC(CO[Si](C)(C)C(C)(C)C)C3(OS(=O)(=O)C=C3N)C2O[Si](C)(C)C(C)(C)C)c(=O)n(CCCNC(=O)[C@@H]2CCCN2C(=O)[C@@H](N)CC(N)=O)c1=O (stereo partly drawn) = 27
Cc1cn(C2OC(CO[Si](C)(C)C(C)(C)C)C3(OS(=O)(=O)C=C3N)C2O[Si](C)(C)C(C)(C)C)c(=O)n(CCCNC(=O)[C@@H]2CCCN2C(=O)[C@@H](N)CCC(=O)O)c1=O (stereo partly drawn) = 48

// below: Activity requested for another compound
Asked: Return Activity (reported value) for this compound: Cc1cn(C2OC(CO[Si](C)(C)C(C)(C)C)C3(OS(=O)(=O)C=C3N)C2O[Si](C)(C)C(C)(C)C)c(=O)n(CCCNC(=O)[C@H](Cc2ccccc2)NC(=O)[C@@H](N)C(C)C)c1=O (stereo partly drawn)
Given back: 0

* * *

Molecular target: UniProt P27487
Experiment: Conversion of prodrug to parent drug NAP-TSAO-T catalyzed by CD26 after 24 hrs
Assay type: ADME
Design: concentration or dose not given beside the values
List of Activity values.
Field: numeric (%). Do not append units.

// solved cases for Activity follow
Cc1cn(C2OC(CO[Si](C)(C)C(C)(C)C)C3(OS(=O)(=O)C=C3N)C2O[Si](C)(C)C(C)(C)C)c(=O)n(CCCNC(=O)[C@@H]2CCCN2C(=O)[C@@H](N)CCC(=O)O)c1=O (stereo partly drawn) = 92
Cc1cn(C2OC(CO[Si](C)(C)C(C)(C)C)C3(OS(=O)(=O)C=C3N)C2O[Si](C)(C)C(C)(C)C)c(=O)n(CCCNC(=O)[C@@H]2CCCN2C(=O)[C@@H](N)CC(N)=O)c1=O (stereo partly drawn) = 73

Asked: Retrieve Activity measured for Cc1cn(C2OC(CO[Si](C)(C)C(C)(C)C)C3(OS(=O)(=O)C=C3N)C2O[Si](C)(C)C(C)(C)C)c(=O)n(CCCNC(=O)[C@H](C)NC(=O)[C@@H](N)C(C)C)c1=O (stereo partly drawn) and print it.
Given back: 35

* * *

Entries and their CC50 values follow.
Test system: MT4
Assay: Antiproliferative activity against human MT4 cell line
Format: functional
Quick note: number first, unit second.

These solved cases illustrate the format of a correct answer.
Cc1cn(C2OC(CO[Si](C)(C)C(C)(C)C)C3(OS(=O)(=O)C=C3N)C2O[Si](C)(C)C(C)(C)C)c(=O)n(CCCNC(=O)[C@@H]2C[C@@H](O)CN2C(=O)[C@@H](N)C(C)C)c1=O (stereo partly drawn) = 10 µM
Cc1cn(C2OC(CO[Si](C)(C)C(C)(C)C)C3(OS(=O)(=O)C=C3N)C2O[Si](C)(C)C(C)(C)C)c(=O)n(CCCNC(=O)[C@@H]2CCCN2C(=O)[C@@H](N)C(C)C)c1=O (stereo partly drawn) = 11 µM

Could you now look at the following compound, please?
Asked: Under MT4, report CC50 for Cc1cn(C2OC(CO[Si](C)(C)C(C)(C)C)C3(OS(=O)(=O)C=C3N)C2O[Si](C)(C)C(C)(C)C)c(=O)n(CCCNC(=O)[C@@H]2CCCN2C(=O)[C@@H](N)Cc2ccccc2)c1=O (stereo partly drawn)
Given back: 19 µM

* * *

Activity by entry:
Target: Dipeptidyl peptidase 4 (Homo sapiens)
Assay: Conversion of prodrug to parent drug NAP-TSAO-T catalyzed by CD26 after 4 hrs
Type: ADME
Design: concentration or dose not given beside the values
Just the number in %, nothing appended.

Asked: Dear colleague, please send me the reported Activity for Cc1cn(C2OC(CO[Si](C)(C)C(C)(C)C)C3(OS(=O)(=O)C=C3N)C2O[Si](C)(C)C(C)(C)C)c(=O)n(CCCNC(=O)[C@@H]2CCCN2C(=O)[C@@H](N)Cc2ccc(O)cc2)c1=O (stereo not given in full) when you can.
Given back: 66

Asked: Specify Activity for Cc1cn(C2OC(CO[Si](C)(C)C(C)(C)C)C3(OS(=O)(=O)C=C3N)C2O[Si](C)(C)C(C)(C)C)c(=O)n(CCCNC(=O)[C@H]2CCCN2C(=O)[C@@H](N)C(C)C)c1=O (stereo not given in full) and stop.
Given back: 2.2

Asked: Note Activity for the molecule shown: Cc1cn(C2OC(CO[Si](C)(C)C(C)(C)C)C3(OS(=O)(=O)C=C3N)C2O[Si](C)(C)C(C)(C)C)c(=O)n(CCCNC(=O)[C@@H]2CCCN2C(=O)[C@@H](NC(=O)OCc2ccccc2)C(C)C)c1=O (stereo not given in full)
Given back: 0

Asked: Report Activity, nothing else, for this molecule: Cc1cn(C2OC(CO[Si](C)(C)C(C)(C)C)C3(OS(=O)(=O)C=C3N)C2O[Si](C)(C)C(C)(C)C)c(=O)n(CCCNC(=O)CNC(=O)[C@@H](N)C(C)C)c1=O (stereo not given in full)
Given back: 0

Asked: Quick one: give measured Activity for Cc1cn(C2OC(CO[Si](C)(C)C(C)(C)C)C3(OS(=O)(=O)C=C3N)C2O[Si](C)(C)C(C)(C)C)c(=O)n(CCCNC(=O)[C@@H]2CCCN2C(=O)[C@H](C)N)c1=O (stereo not given in full)
Given back: 81

* * *

Target: Human immunodeficiency virus type 1 reverse transcriptase (Human immunodeficiency virus 1, UniProt Q72547)
Assay: Inhibition of recombinant HIV1 reverse transcriptase
Measured property: pIC50
Reminder that pIC50 means the negative base-10 logarithm of the concentration expressed in mol/L.

Answered cases to consult:
Cc1cn(C2OC(CO[Si](C)(C)C(C)(C)C)C3(OS(=O)(=O)C=C3N)C2O[Si](C)(C)C(C)(C)C)c(=O)n(CCCNC(=O)[C@H](C)NC(=O)[C@@H](N)C(C)C)c1=O (stereo not given in full) = 5.27
Cc1cn(C2OC(CO[Si](C)(C)C(C)(C)C)C3(OS(=O)(=O)C=C3N)C2O[Si](C)(C)C(C)(C)C)c(=O)n(CCCNC(=O)[C@@H]2CCCN2C(=O)[C@@H](N)CC(=O)O)c1=O (stereo not given in full) = 5.14
Cc1cn(C2OC(CO[Si](C)(C)C(C)(C)C)C3(OS(=O)(=O)C=C3N)C2O[Si](C)(C)C(C)(C)C)c(=O)n(CCCNC(=O)[C@@H]2CCCN2C(=O)[C@@H](N)C(C)C)c1=O (stereo not given in full) = 5.18

Asked: Quote pIC50 reported for Cc1cn(C2OC(CO[Si](C)(C)C(C)(C)C)C3(OS(=O)(=O)C=C3N)C2O[Si](C)(C)C(C)(C)C)c(=O)n(CCCNC(=O)[C@@H](NC(=O)[C@@H]2CCCN2C(=O)[C@@H](N)C(C)C)C(C)C)c1=O (stereo not given in full) please.
Given back: 5.36

Asked: Quickly give me recorded pIC50 for Cc1cn(C2OC(CO[Si](C)(C)C(C)(C)C)C3(OS(=O)(=O)C=C3N)C2O[Si](C)(C)C(C)(C)C)c(=O)n(CCCNC(=O)[C@@H]2CCCN2C(=O)[C@@H](N)CCCCN)c1=O (stereo not given in full)
Given back: 5.33

meta.source: ChEMBL document CHEMBL1146037
